System: E coli carrying specific resistance determinants
Assay: MIC by broth microdilution, E coli carrying specific resistance determinants
Assay type: cell-based
Conditions: E. coli strain pH421, APH(3)-I

- molecule: "CC(N)C1OC(OC2C(N)CC(N)C(O)C2OC2OC(CO)C(OC3OC(CN)C(O)C(O)C3N)C2O)C(N)C(O)C1O (stereo not shown)"
  MIC pH421 APH(3)-I: ">32 μg/ml"
- molecule: "CCCC(O)C1OC(OC2C(N)CC(N)C(O)C2OC2OC(CO)C(OC3OC(CN)C(O)C(O)C3N)C2O)C(N)C(O)C1O (stereo not shown) [DC142]"
  MIC pH421 APH(3)-I: ">32 μg/ml"
- molecule: "CC(C)(O)[C@H]1O[C@H](O[C@H]2[C@H](O[C@@H]3O[C@H](CO)[C@@H](O[C@H]4O[C@@H](CN)[C@@H](O)[C@H](O)[C@H]4N)[C@H]3O)[C@@H](O)[C@H](N)C[C@@H]2N)[C@H](N)[C@@H](O)[C@@H]1O"
  MIC pH421 APH(3)-I: ">64 μg/ml"
- molecule: "NCC1OC(OC2C(CO)OC(OC3C(O)C(N)CC(N)C3OC3OC4C(O)CCCOC4C(O)C3N)C2O)C(N)C(O)C1O (stereo not shown)"
  MIC pH421 APH(3)-I: ">128 μg/ml"

----------
Tested on: E coli carrying specific resistance determinants
Assay: MIC by broth microdilution, E coli carrying specific resistance determinants
Type: cell-based
Conditions: Escherichia coli, read-out: MIC pH423 E. coli APH(3′)-VI
Counter-ions that a name gives are not always drawn.

- compound: "NC[C@@H]1O[C@H](O[C@@H]2C(O)[C@H](O[C@@H]3C(O)[C@H](N)CC(N)[C@H]3O[C@H]3OC(CO)[C@@H](O)[C@H](O)C3N)O[C@@H]2CNC=O)C(N)C(O)[C@@H]1O (some centres unmarked) [Compound 137, acetate salt]"
  MIC: "> 64 µg/mL"
- compound: "NC[C@@H]1O[C@H](O[C@H]2[C@@H](O)[C@H](O[C@@H]3[C@@H](O)[C@H](N)C[C@H](N)[C@H]3O[C@H]3O[C@H](CO)[C@@H](O)[C@H](O)[C@H]3N)O[C@@H]2CO)[C@H](N)[C@@H](O)[C@@H]1O [paromomycin, reference compound]"
  MIC: "> 128 µg/mL"

----------
Reported MIC values follow for various compounds
System: Acinetobacter baumannii pittii AG225
Assay: MIC by broth microdilution, Acinetobacter baumannii
Assay type: cell-based
Settings: strain AG225 Acinetobacter baumannii pittii
Structures can show the parent of a compound that is named as a salt.

- compound: "CNC1C(OC2C(N)CC(N)C(O)C2OC2OC(CO)C(OC3OC(CN)C(O)C(O)C3N)C2O)OC(CO)C(O)C1O (centres unmarked) [Compound 115, 2′-N-Methyl-paromomycin acetate salt]"
  value-modifier: "="
  MIC / µg/mL: 4
- compound: "NC[C@@H]1O[C@H](O[C@@H]2C(O)[C@H](O[C@@H]3C(O)[C@H](N)CC(N)[C@H]3O[C@H]3OC4C(O)CCCO[C@H]4[C@H](O)C3N)O[C@@H]2CO)C(N)C(O)[C@@H]1O (some centres unmarked)"
  value-modifier: ">"
  MIC / µg/mL: 32
- compound: "NCC1OC(OC2C(CO)OC(OC3C(O)C(N)CC(N)C3OC3OC(CN)C(O)C(O)C3O)C2O)C(N)C(O)C1O (centres unmarked)"
  value-modifier: "="
  MIC / µg/mL: 1
- compound: "NC[C@H]1O[C@H](O[C@H]2[C@H](O[C@@H]3O[C@H](CO)[C@@H](O)[C@H]3O)[C@@H](O)[C@H](N)C[C@@H]2N)[C@H](N)[C@@H](O)[C@@H]1O [Ribostamycin, ribostamycin, reference compound]"
  value-modifier: "="
  MIC / µg/mL: 4
- compound: "NCC1O[C@H](O[C@@H]2C(O)[C@H](O[C@@H]3C(O)[C@H](N)CC(N)[C@H]3O[C@H]3OC(CO)[C@@H](CCCO)C(O)[C@@H]3N)O[C@@H]2CO)C(N)C(O)[C@@H]1O (some centres unmarked)"
  value-modifier: "="
  MIC / µg/mL: 8

----------
Reported pIC50 values follow for various compounds
System: rabbit reticulocyte ribosomes
Experiment: in-vitro translation assay, rabbit reticulocyte ribosomes
Format: biochemical
Conditions: mammalian cytosolic ribosomes (rabbit)
pIC50: −log10 of the molar value.

- compound: "CCNC1C(OC2C(N)CC(N)C(O)C2OC2OC(CO)C(OC3OC(CN)C(O)C(O)C3N)C2O)OC(CN)C(O)C1O (centres unmarked)"
  pIC50: 4.35
- compound: "NC[C@@H]1O[C@H](O[C@H]2[C@@H](O)[C@H](O[C@@H]3[C@@H](O)[C@H](N)C[C@H](N)[C@H]3O[C@H]3O[C@H](CO)[C@@H](O)[C@H](O)[C@H]3N)O[C@@H]2CO)[C@H](N)[C@@H](O)[C@@H]1O [paromomycin, reference compound]"
  pIC50: 4.68
- compound: "NCC1OC(OC2C(CNC=O)OC(OC3C(O)C(N)CC(N)C3OC3OC(CO)C(O)CC3N)C2O)C(N)C(O)C1O (centres unmarked)"
  pIC50: 4.24
- compound: "CC(=O)N[C@H]1[C@@H](O[C@H]2[C@H](O[C@@H]3O[C@H](CO)[C@@H](O[C@H]4O[C@@H](CN)[C@@H](O)[C@H](O)[C@H]4N)[C@H]3O)[C@@H](O)[C@H](N)C[C@@H]2N)O[C@H](CN)[C@@H](O)[C@@H]1O"
  pIC50: 3.99
- compound: "CC(O)C1OC(OC2C(N)CC(N)C(O)C2OC2OC(CO)C(OC3OC(CN)C(O)C(O)C3N)C2O)C(N)C(O)C1O (centres unmarked)"
  pIC50: 5.27

----------
Test system: MRSA
Test: MIC by broth microdilution, MRSA isolates
Format: cell-based
Settings: clinical isolate AG039, AAC(6′)-I ANT(4′)-I
Reported MIC AG039 MRSA AAC(6′)-I ANT(4′)-I values follow for various compounds
reported-property: MIC AG039 MRSA AAC(6′)-I ANT(4′)-I

- compound: "NCC1OC(OC2C(CNC(N)=O)OC(OC3C(O)C(N)CC(N)C3OC3OC(CO)C(O)C(O)C3N)C2O)C(N)C(O)C1O (stereo not drawn)"
  result: ">128 µg/mL"
- compound: "NCC1OC(OC2C(CNC=O)OC(OC3C(O)C(N)CC(N)C3OC3OC(CO)C(O)CC3N)C2O)C(N)C(O)C1O (stereo not drawn)"
  result: ">128 µg/mL"
- compound: "CCCC(O)C1OC(OC2C(N)CC(N)C(O)C2OC2OC(CO)C(OC3OC(CN)C(O)C(O)C3N)C2O)C(N)C(O)C1O (stereo not drawn) [DC142]"
  result: ">128 µg/mL"
- compound: "NC[C@@H]1O[C@H](O[C@H]2[C@@H](O)[C@H](O[C@@H]3[C@@H](O)[C@H](N)C[C@H](N)[C@H]3O[C@H]3O[C@H](CO)[C@@H](O)C[C@H]3N)O[C@@H]2CO)[C@H](N)[C@@H](O)[C@@H]1O [Lividomycin B, lividomycin B, reference compound]"
  result: ">128 µg/mL"
- compound: "NC[C@H]1O[C@H](O[C@H]2[C@H](O[C@@H]3O[C@H](CNC=O)[C@@H](O)[C@H]3O)[C@@H](O)[C@H](N)C[C@@H]2N)[C@H](N)[C@@H](O)[C@@H]1O"
  result: ">128 µg/mL"
- compound: "CC(=O)N[C@H]1[C@@H](O[C@H]2[C@H](O[C@@H]3O[C@H](CO)[C@@H](O[C@H]4O[C@@H](CN)[C@@H](O)[C@H](O)[C@H]4N)[C@H]3O)[C@@H](O)[C@H](N)C[C@@H]2N)O[C@H](CN)[C@@H](O)[C@@H]1O"
  result: ">32 µg/mL"
- compound: "CC(O)C1OC(OC2C(N)CC(N)C(O)C2OC2OC(CO)C(OC3OC(CN)C(O)C(O)C3N)C2O)C(N)C(O)C1O (stereo not drawn)"
  result: ">128 µg/mL"
- compound: "CC(N)C1OC(OC2C(N)CC(N)C(O)C2OC2OC(CO)C(OC3OC(CN)C(O)C(O)C3N)C2O)C(N)C(O)C1O (stereo not drawn)"
  result: ">128 µg/mL"
- compound: "CC(C)(O)[C@H]1O[C@H](O[C@H]2[C@H](O[C@@H]3O[C@H](CO)[C@@H](O[C@H]4O[C@@H](CN)[C@@H](O)[C@H](O)[C@H]4N)[C@H]3O)[C@@H](O)[C@H](N)C[C@@H]2N)[C@H](N)[C@@H](O)[C@@H]1O"
  result: ">128 µg/mL"
- compound: "NC[C@@H]1O[C@H](O[C@H]2[C@@H](O)[C@H](O[C@@H]3[C@@H](O)[C@H](N)C[C@H](N)[C@H]3O[C@H]3O[C@H](CN)[C@@H](O)[C@H](O)[C@H]3O)O[C@@H]2CO)[C@H](N)[C@@H](O)[C@@H]1O"
  result: ">128 µg/mL"
- compound: "NC[C@H]1O[C@H](O[C@H]2[C@H](O[C@@H]3O[C@H](CO)[C@@H](O)[C@H]3O)[C@@H](O)[C@H](N)C[C@@H]2N)[C@H](N)C[C@@H]1O"
  result: ">128 µg/mL"
- compound: "CCNC1C(OC2C(N)CC(N)C(O)C2OC2OC(CO)C(OC3OC(CN)C(O)C(O)C3N)C2O)OC(CN)C(O)C1O (stereo not drawn)"
  result: ">32 µg/mL"
